The measurements presented in this section are drawn from patent US10363252B2.

Test: plasma trough level of itraconazole required for clinical benefit in humans with cancer
Format: in vivo, human
Settings: human, plasma; after 4 weeks of therapy; humans with cancer; read-out: minimum plasma trough level required to have a clinically significant effect
Procedure: In particular, the minimum plasma trough level after 4 weeks of therapy required to have a clinically significant effect was at least 1000 ng/ml. Achieving these levels of itraconazole is enhanced by the use of formulations with greater bioavailability such as SUBA-CAP™ formulation. […] These side effects associated with these high doses of itraconazole can be effectively managed by giving a selective mineralocorticoid antagonist, such as eplerenone. […]
metric name: concentration at 4 weeks

query: What does the data say about its concentration at 4 weeks? Entry: CCC(C)n1ncn(-c2ccc(N3CCN(c4ccc(OCC5COC(Cn6cncn6)(c6ccc(Cl)cc6Cl)O5)cc4)CC3)cc2)c1=O (stereo not shown)
result: ≥ 1000 ng/mL
